Attribution: patent US20220380341A1

- targetSystem: HIV-1 NefNL4-3 (Human immunodeficiency virus type 1 group M subtype B, UniProt P03406, A33V/T15A/T51N/V11I)
- methodSummary: Surface plasmon resonance binding to recombinant full-length Nef (NL4-3)
- experimentalConditions: KD, M, Table 4; SPR fit 2-step induced fit, KD = koff/kon × koff2/(koff2 + kon2)
pKd: −log10 of the molar value.
# cutoff 7 applies to pKd; >= gives 1, < gives -1

Tell me whether pKd is at least 7 here: O=S(=O)(NCc1nn(-c2nc3ccccc3[nH]2)c(O)c1CCc1ccc(F)cc1)c1cccnc1
1

Does pKd meet or surpass 7 for Oc1c(CC2CCCCO2)c(-c2ccc(C(F)(F)F)cc2)nn1-c1nc2ccccc2[nH]1 (stereo not shown) ?
-1

Hi, just wondering whether CC(=O)N1CCC(c2nn(-c3nc4ccc(Cl)cc4[nH]3)c(O)c2CCc2ccc(F)cc2)CC1 shows pKd of 7 or higher.
-1

Kindly determine if pKd recorded for CC(C)(O)C(=O)N1CCC(CCc2c(C3CC3)nn(-c3nc4cc(Cl)ccc4[nH]3)c2O)CC1 is above or exactly 7.
1

Is it the case that CC(=O)N1CCC(CCc2c(-c3ccc(C(F)(F)F)cc3)nn(-c3nc4ccccc4[nH]3)c2O)CC1 has pKd reaching or exceeding 7?
-1

Consider the additional molecule presented here.
Answer whether pKd of COCCc1nn(-c2nc3ccccc3[nH]2)c(O)c1CCc1ccc(F)cc1 is greater than or equal to 7.
-1

###

Task for the reader: assign each of the following molecules its reported % Cell Viability.
- Tested on: TZM-bl cell line
- Format: cell-based
- experimentalConditions: human, 1 μM
One number for each entry, in %.

Look over these answered cases.
For O=C(C1CCC(O)CC1)N1CCC(c2nn(-c3nc4ccccc4[nH]3)c(O)c2CCc2ccc(F)cc2)CC1 (stereo not shown) the molecule record lists % Cell Viability as 96.9

Lab note: measured % Cell Viability of CC(C)(O)C(=O)N1CCC(Cc2nn(-c3nc4ccccc4[nH]3)c(O)c2CCc2ccc(F)cc2)CC1 was 97.0

Reported % Cell Viability for Oc1c(CCc2ccc(F)cc2)c(-c2ccccc2)nn1-c1nc2cc(Cl)ccc2[nH]1 was 89.6

Entry CCOC(=O)N1CCC(c2nn(-c3nc4ccccc4[nH]3)c(O)c2CCC2CCOCC2)CC1 — recorded % Cell Viability = 92.2

For record CC(=O)N1CCC(CCc2c(-c3ccc(C(F)(F)F)cc3)nn(-c3nc4ccccc4[nH]3)c2O)CC1 the listed % Cell Viability is 98.0

The value of % Cell Viability measured for the molecule Oc1c(CCn2cc(Cl)cn2)c(-c2ccc(C(F)(F)F)cc2)nn1-c1nc2ccccc2[nH]1 turned out to be 98.9

More entries:
# molecule C[C@@](O)(C(=O)N1CCC(CCc2c(C3CC3)nn(-c3nc4ccccc4[nH]3)c2O)CC1)C(F)(F)F ; its % Cell Viability = 100

###

- targetSystem: HIV-1 NefNL4-3 (Human immunodeficiency virus type 1 group M subtype B, UniProt P03406, A33V/T15A/T51N/V11I)
- methodSummary: Surface plasmon resonance binding to recombinant full-length Nef (NL4-3)
- experimentalConditions: response units at 30 μM relative to Nef immobilized on the SPR chip
recordedEndpoint: RU30/RUNef (extent of binding) (E- 03)
Give bare numbers, in E- 03.

These recorded examples may help you get a feel for the data.
// RU30/RUNef (extent of binding) value for O=S(=O)(NCc1nn(-c2nc3ccccc3[nH]2)c(O)c1CCc1ccc(F)cc1)c1cccnc1 : 2.56

The value of RU30/RUNef (extent of binding) measured for the compound Oc1c(CCn2cc(Cl)cn2)c(-c2ccc(C(F)(F)F)cc2)nn1-c1nc2ccccc2[nH]1 turned out to be 1.02

Respectfully, I request RU30/RUNef (extent of binding) for each entry included below.
1. Oc1c(CCc2ccc(F)cc2)c(-c2ccc(C(F)(F)F)cc2)nn1-c1nc2ccncc2[nH]1
2. O=C(OCc1ccccc1)N1CCC(c2nn(-c3nc4cccnc4[nH]3)c(O)c2CCc2ccc(F)cc2)CC1

1. 1.59
2. 9.61

###

Would you kindly list RU30/RUNef (extent of binding) for each of these molecules?
- targetSystem: HIV-1 NefNL4-3 (Human immunodeficiency virus type 1 group M subtype B, UniProt P03406, A33V/T15A/T51N/V11I)
- methodSummary: Surface plasmon resonance binding to recombinant full-length Nef (NL4-3)
- experimentalConditions: response units at 30 μM relative to Nef immobilized on the SPR chip
Answers are plain numbers, in E- 03.

Batch: RU30/RUNef (extent of binding) for all items listed.
1. CC(C)(C)OC(=O)N1CCN(Cc2nn(-c3nc4ccccc4[nH]3)c(O)c2CCc2ccc(F)cc2)CC1 [Compound I-211]
2. O=S(=O)(c1cccnc1)N1CCCC(c2nn(-c3nc4ccccc4[nH]3)c(O)c2CCc2ccc(F)cc2)C1 (centres unmarked) [Compound I-758]
3. Oc1c(CC2CCOCC2)c(C2CC(F)(F)C2)nn1-c1nc2ccccc2[nH]1 [Compound I-176]
4. O=C(c1nn(-c2nc3ccccc3[nH]2)c(O)c1CCc1ccc(F)cc1)N1CCCCC1 [Compound I-406]

2.89
2.95
1.52
7.13

# batch: return RU30/RUNef (extent of binding) for each of the 5 molecules below
1. CS(=O)(=O)N1CCC(Cc2c(-c3ccc(C(F)(F)F)cc3)nn(-c3nc4ccccc4[nH]3)c2O)CC1 [Compound I-718]
2. CC(C)(C)OC(=O)N1CCCCC1Cc1nn(-c2nc3ccccc3[nH]2)c(O)c1CCc1ccc(F)cc1 (centres unmarked) [Compound I-207]
3. CC(C)(O)C(=O)N1CCC(Cc2nn(-c3nc4ccccc4[nH]3)c(O)c2CCc2ccc(F)cc2)CC1 [Compound I-777]
4. Cc1ccn(CCc2c(-c3ccc(C(F)(F)F)cc3)nn(-c3nc4ccc(Cl)cc4[nH]3)c2O)n1 [Compound I-163]
5. Oc1c(CC2CCN(CC(F)(F)F)CC2)c(-c2ccc(C(F)(F)F)cc2)nn1-c1nc2ccccc2[nH]1 [Compound I-1005]

1.22
4.14
2.23
4.48
1.26

###

Field: Percent Viability @ 1 μM (TZM-bl cells). Provide a value for each of the molecules that follow.
- Tested on: TZM-bl cell line
- Type: cell-based
- experimentalConditions: human, 1 μM
Numbers only, in %.

Worked examples, 5 molecules total:
Percent Viability @ 1 μM (TZM-bl cells) reading for Oc1c(CC2CCCC2)c(-c2ccc(C(F)(F)F)cc2)nn1-c1nc2ccccc2[nH]1 : 85.3

COc1cc(N2CCC(CCc3c(C4CC4)nn(-c4nc5cc(Cl)ccc5[nH]4)c3O)CC2)nc(OC)n1 has a reported Percent Viability @ 1 μM (TZM-bl cells) of 106.5

Lab note: measured Percent Viability @ 1 μM (TZM-bl cells) of O=C(OCc1ccccc1)N1CCC(c2nn(-c3nc4cccc(Cl)c4[nH]3)c(O)c2CCc2ccc(F)cc2)CC1 was 97.0

Short answer for CC(=O)N1CCC(c2c(-c3ccc(C(F)(F)F)cc3)nn(-c3nc4ccccc4[nH]3)c2O)CC1 : Percent Viability @ 1 μM (TZM-bl cells) was 76.8

Notebook: Oc1c(CCC2CCOCC2)c(-c2cccc(F)c2)nn1-c1nc2ccccc2[nH]1 , Percent Viability @ 1 μM (TZM-bl cells) read as 77.7

Kindly give each listed record's Percent Viability @ 1 μM (TZM-bl cells).
1. CC[C@H](C)[C@H](O)C(=O)N1CCC(c2nn(-c3nc4ccccc4[nH]3)c(O)c2CCc2ccc(F)cc2)CC1
2. Oc1c(CCc2ccc(F)cc2)c(C2CCN(Cc3ccncc3)CC2)nn1-c1nc2ccccc2[nH]1
3. Oc1c(CCc2ccc(F)cc2)c(-c2ccc(C(F)(F)F)nc2)nn1-c1nc2ccccc2[nH]1
4. COc1cccc(-c2nn(-c3nc4ccccc4[nH]3)c(O)c2CCc2ccc(F)cc2)n1
5. CS(=O)(=O)N1CCC(Cc2nn(-c3nc4ccccc4[nH]3)c(O)c2CCc2ccc(F)cc2)CC1

1: 91.0; 2: 97.5; 3: 91.9; 4: 95.8; 5: 100.1

###

- targetSystem: HIV-1 NefNL4-3 (Human immunodeficiency virus type 1 group M subtype B, UniProt P03406, A33V/T15A/T51N/V11I)
- methodSummary: Surface plasmon resonance binding to recombinant full-length Nef (NL4-3)
recordedEndpoint: pKd
Answers are plain numbers, as −log10 of the molar value.

Oc1c(CCc2ccc(F)cc2)c(CC2CCN(Cc3ccncc3)CC2)nn1-c1nc2ccccc2[nH]1 yielded pKd of 5.56

Go through the list and state pKd for each entry.
1. Oc1c(CCc2ccc(F)cc2)c(-c2ccc(C(F)(F)F)cn2)nn1-c1nc2cc(F)ccc2[nH]1
2. CC(C)(C)OC(=O)N1CCC(CCc2c(C3CC3)nn(-c3nc4cc(Cl)ccc4[nH]3)c2O)CC1
3. Oc1c(CCc2ccc(F)cc2)c(CC2CCCNC2)nn1-c1nc2ccccc2[nH]1 (stereo not shown)

1: 6.52; 2: 5.95; 3: 6.11
